B1: Mineralocorticoid receptor, residues 600 to 675; numbered along this chain, P08235 (parent)
chain: SKICLVCGDEASGCHYGVVTCGSCKVFFKRAVEGQHNYLCAGRNDCIIDKIRRKNCPACRLQKCLQAGMNLGARKS

# Variants of: B1
# method-summary: abundance fitness (aPCA) (normalised: wild type 0, dead -1); higher = more abundant; growth selection in yeast, the domain comes from the species named
# stated-conditions: Homo sapiens
This listing pairs variants with measured abundance fitness.
outcome-measure: abundance fitness

M69S :: -0.341
A58M :: -0.141
R74I :: -0.042
I48F :: -0.104
G17A :: -0.108
L65W :: -0.035
T20L :: -0.17
Q35L :: -0.094
G13Y :: -0.259
V6G :: -0.726
H15D :: -0.119
V26A :: -0.044
G22E :: -0.017
D9T :: -0.082
N44P :: -0.391
C40H :: -0.341
K63F :: -0.192
G34H :: -0.078
Y16I :: -0.213
D49A :: -0.141
F28S :: -0.361
N37A :: -0.027
Q62G :: -0.028
Y38A :: -0.027
Q35S :: -0.028
R30H :: 0.043
S76T :: 0.01
A58D :: -0.085
K29Q :: -0.003
I51F :: -0.076
I3Q :: -0.152
E33H :: -0.077
G13M :: -0.035
K54A :: -0.039
Y38M :: -0.117
L39V :: -0.007
G68D :: -0.164
G42P :: -0.621
C24W :: -1.11
L65F :: -0.01
C4W :: -1.06
R52T :: -0.04
A58V :: -0.446
K2M :: -0.075
N37V :: 0.026
I47R :: 0.03
